Tested on: phenol oxidizing enzyme from Acremonium murorum
PROCEDURE TEXT: Dye damage of the phenol oxidizing enzyme/enhancer system on colored swatch P10, consecutive washes in detergent formulation
MEASUREMENT CONDITIONS: 1st wash, enzyme 20 mg/l, enhancer 250 μM, 40° C., 1 hour
Procedure: A number of colored swatches were washed to assess the degree to which the enzymatic bleach system provokes dye damage. Each swatch was subjected to 5 consecutive washes in a detergent formulation. The closed containers were agitated by putting them in a washing machine. The machine was run for 1 hour with the water heated to 40° C. The pH of the wash solution was set to pH 9. The phenol oxidizing enzyme from Acremonium murorum (see above) was added to the wash solution at 20 mg/l. […]
MEASURED PROPERTY: Color difference (ΔE) original P10 swatch vs after 1st wash

MOLECULE	ASSAY SYSTEM	REPORTED MEASUREMENT
O=S(=O)(Nc1cc(Br)c(O)c(Br)c1Br)c1ccccc1	phenol oxidizing enzyme from Acremonium murorum	1.69
O=C(O)CCN1c2ccccc2Sc2ccccc21 [PTP, Phenothiazine-10-propionate]	phenol oxidizing enzyme from Acremonium murorum	0.51
Cc1ccc(S(=O)(=O)Nc2cc(Br)c(O)c(Br)c2Br)cc1	phenol oxidizing enzyme from Acremonium murorum	0.93
CCn1c(=NN=c2sc3cc(S(=O)(=O)O)ccc3n2CC)sc2cc(S(=O)(=O)O)ccc21	phenol oxidizing enzyme from Acremonium murorum	1.61
